# assay.system: Stat3 (Homo sapiens)
# Sequence (P40763 whole entry, species assumed, the tested form may be a part): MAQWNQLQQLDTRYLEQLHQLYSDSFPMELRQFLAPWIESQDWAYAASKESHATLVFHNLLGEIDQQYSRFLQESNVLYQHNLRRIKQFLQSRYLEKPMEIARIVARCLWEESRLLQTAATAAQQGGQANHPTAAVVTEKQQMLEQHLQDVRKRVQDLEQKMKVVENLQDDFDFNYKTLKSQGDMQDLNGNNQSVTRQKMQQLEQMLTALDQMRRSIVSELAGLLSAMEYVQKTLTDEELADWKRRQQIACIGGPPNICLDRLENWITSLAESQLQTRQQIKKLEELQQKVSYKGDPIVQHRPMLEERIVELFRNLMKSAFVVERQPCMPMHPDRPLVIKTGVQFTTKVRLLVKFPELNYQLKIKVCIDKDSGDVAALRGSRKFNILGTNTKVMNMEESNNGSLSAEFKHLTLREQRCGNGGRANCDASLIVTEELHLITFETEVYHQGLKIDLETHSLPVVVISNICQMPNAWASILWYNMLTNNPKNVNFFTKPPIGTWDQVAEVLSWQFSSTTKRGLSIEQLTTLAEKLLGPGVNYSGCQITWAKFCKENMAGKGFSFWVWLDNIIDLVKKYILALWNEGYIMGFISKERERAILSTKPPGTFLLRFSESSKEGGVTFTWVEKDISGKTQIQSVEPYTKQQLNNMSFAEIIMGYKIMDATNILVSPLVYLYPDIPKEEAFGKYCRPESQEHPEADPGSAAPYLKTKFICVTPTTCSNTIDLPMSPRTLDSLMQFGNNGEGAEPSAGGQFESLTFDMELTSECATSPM
# test.name: Stat3 SH2 domain affinity, fluorescence polarization
# Assay type: binding
# settings: fluorescence polarization
pIC50: −log10 of the molar value.
observable: pIC50

Problem: Give Stat3 (Homo sapiens) pIC50 for 7: XXX-Leu-Pro-Gln-Thr-NH2 with XXX = Ac-pTic; drawing shows XXX only [Compound 7]
Solution: < 4.00
